What total protein half-life in vivo was measured for each of the following?
test: total protein half-life in vivo (active degradation + dilution); higher = more stable protein; settings: E. coli NCM3722 delta-clpP delta-lon delta-hslV; growth: N-lim chemostat; doubling time 6 h
Give bare numbers, in h.

Example entries and their recorded answers appear below.
seqText: MLSRHINYFLAVAEHGSFTRAASALHVSQPALSQQIRQLEESLGVPLFDRSGRTIRLTDAGEVWRQYASRALQELGAGKRAIHDVADLTRGSLRIAVTPTFTSYFIGPLMADFYARYPSITLQLQEMSQEKIEDMLCRDELDVGIAFAPVHSPELEAIPLLTESLALVVAQHHPLAVHEQVALSRLHDEKLVLLSAEFATREQIDHYCEKAGLHPQVVIEANSISAVLELIRRTSLSTLLPAAIATQHDGLKAISLAPPLLERTAVLLRRKNSWQTAAAKAFLHMALDKCAVVGGNESR
total protein half-life in vivo, h: 5.07
//
seqText: MIRNVLLAFMICSGMTLLGGCSSVMSHTGGKEGTYPGTRASATMIGDDETNWGTKSLAILDMPFTAVMDTLLLPWDVFRKDSSVRSRVEKSEANAQATNAVIPPARMPDN [P0ADM4]
total protein half-life in vivo, h: 5.58

Continue with the next sequence.
Any idea what its total protein half-life in vivo is? The sequence is MSQPLLSVNGLMMRFGGLLAVNNVNLELYPQEIVSLIGPNGAGKTTVFNCLTGFYKPTGGTILLRDQHLEGLPGQQIARMGVVRTFQHVRLFREMTVIENLLVAQHQQLKTGLFSGLLKTPSFRRAQSEALDRAATWLERIGLLEHANRQASNLAYGDQRRLEIARCMVTQPEILMLDEPAAGLNPKETKELDELIAELRNHHNTTILLIEHDMKLVMGISDRIYVVNQGTPLANGTPEQIRNNPDVIRAYLGEA [P0A9S7]
6.52
